This collection of values is drawn from patent US20170101476A1.

# test_target: T1, Human CXCR2 (human, UniProt P25025 1-360)
# T1 sequence: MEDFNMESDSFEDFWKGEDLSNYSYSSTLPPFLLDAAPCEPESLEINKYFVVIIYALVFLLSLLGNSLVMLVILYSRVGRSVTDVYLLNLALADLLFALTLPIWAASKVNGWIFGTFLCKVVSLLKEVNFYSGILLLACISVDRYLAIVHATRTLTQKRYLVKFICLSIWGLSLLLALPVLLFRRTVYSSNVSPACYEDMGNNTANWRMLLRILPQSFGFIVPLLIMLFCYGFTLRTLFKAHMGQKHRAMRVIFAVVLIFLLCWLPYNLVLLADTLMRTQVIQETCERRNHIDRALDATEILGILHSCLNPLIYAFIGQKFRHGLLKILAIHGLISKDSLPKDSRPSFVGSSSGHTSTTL
# protocol_summary: cell-based or functional assay
Documented [35S]GTPγS % inhibition of max, ENA-78 across a set of binders
Number in %, nothing else.

binder: CXCR20020 (bispecific antibody, not shown: small tags and cut ends) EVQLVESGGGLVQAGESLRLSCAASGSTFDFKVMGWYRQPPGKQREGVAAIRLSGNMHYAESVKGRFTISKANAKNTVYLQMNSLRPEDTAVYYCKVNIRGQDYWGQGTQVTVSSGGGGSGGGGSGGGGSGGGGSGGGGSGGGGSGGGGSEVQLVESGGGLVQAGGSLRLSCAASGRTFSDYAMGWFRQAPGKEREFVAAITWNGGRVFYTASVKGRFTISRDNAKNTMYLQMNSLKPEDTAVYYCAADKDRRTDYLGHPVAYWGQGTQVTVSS
[35S]GTPγS % inhibition of max, ENA-78 (%): 100

Now take the following binder into account.
Can you look up the measured [35S]GTPγS % inhibition of max, ENA-78 of CXCR20031 (bispecific antibody, not shown: small tags and cut ends) EVQLVESGGELVQPGGSLRLSCAASGSILTINAMGWYRQAPGKQRELVVRRTRGGSTTYQDSVKGRFTISADIAKKTMYLQMNSLKPEDTAVYYCMLDDRGGVYWGQGTQVTVSSGGGGSGGGGSGGGGSGGGGSGGGGSGGGGSGGGGSEVQLVESGGGLVQPGGSLRLSCVASGRIFSSNAMGWFRQAPGKEREFVAAITWRSGGSAYYADSAKGRFTISRDNAKNTVYLQMNSLKPEDTAVYYCAAGGSSWLSFPPDYWGQGTQVTVSS for me? 100
